- target: SYK kinase (Homo sapiens, UniProt P43405)
measurement.kind: IC50

Observe how each entry below is paired with its result.
>  <compound>
CC(C)n1cc(Nc2nc(-c3ccoc3)nc3cn[nH]c23)cn1

>  <target>
SYK kinase (Homo sapiens, UniProt P43405)

>  <IC50>
< 10 nM

$$$$
>  <compound>
c1cc(N2CCOCC2)ccc1Nc1nc(C2CC2)nc2cn[nH]c12

>  <target>
SYK kinase (Homo sapiens, UniProt P43405)

>  <IC50>
< 10 nM

$$$$
>  <compound>
Oc1c(Cl)cc(Nc2nc(-c3c(F)cccc3F)nc3cn[nH]c23)cc1Cl

>  <target>
SYK kinase (Homo sapiens, UniProt P43405)

>  <IC50>
10 to 100 nM

$$$$
>  <compound>
CC(C)n1cc(Nc2nc(-c3ccc4cn[nH]c4c3)nc3cn[nH]c23)cn1

>  <target>
SYK kinase (Homo sapiens, UniProt P43405)

>  <IC50>
10 to 100 nM

$$$$

Reported IC50, compound "OCCN1CCN(c2ccc(Nc3nc(-c4ccc5cn[nH]c5c4)nc4cn[nH]c34)cc2)CC1" : ____
10 to 100 nM

Reported IC50, compound CC1CC1c1nc(Nc2ccc(N3CCOCC3)cc2)c2[nH]ncc2n1 (centres unmarked) : ____
10 to 100 nM

Reported IC50, compound "c1csc(-c2nc(Nc3cnn(C4CCOCC4)c3)c3[nH]ncc3n2)c1" : ____
10 to 100 nM

Reported IC50, compound "Fc1cc(Nc2nc(-c3ccno3)nc3cn[nH]c23)ccc1N1CCOCC1" : ____
100 to 1000 nM

Reported IC50, compound "CC(=O)N1CCN(c2ccc(Nc3nc(-c4ccoc4)nc4cn[nH]c34)cc2)CC1" : ____
10 to 100 nM

Reported IC50, compound "O=C1CCCc2ccc(Nc3nc(-c4ccco4)nc4cn[nH]c34)cc2N1" : ____
10 to 100 nM

Reported IC50, compound "CC(=O)N1CCC(n2cc(Nc3nc(-c4cnn(C)c4)nc4cn[nH]c34)cn2)CC1" : ____
< 10 nM

Reported IC50, compound "CC(C)(C)N1CCN(c2ccc(Nc3nc(-c4ccoc4)nc4cn[nH]c34)cc2)CC1" : ____
10 to 100 nM

Reported IC50, compound "OCCn1cc(Nc2nc(-c3ccoc3)nc3cn[nH]c23)cn1" : ____
< 10 nM

Reported IC50, compound "COCCn1cc(Nc2nc(-c3cocn3)nc3cn[nH]c23)cn1" : ____
100 to 1000 nM

Reported IC50, compound "Cc1c(Nc2nc(C3CCC3)nc3cn[nH]c23)cnn1C(C)C" : ____
100 to 1000 nM

Reported IC50, compound "c1ccc(Sc2ccc(Nc3nc(-c4ccc5cn[nH]c5c4)nc4cn[nH]c34)cc2)cc1" : ____
100 to 1000 nM

Reported IC50, compound "CC(=O)Nc1cc(Nc2nc(-c3c(F)cccc3F)nc3cn[nH]c23)ccc1N1CCN(C(C)=O)CC1" : ____
100 to 1000 nM

Reported IC50, compound "NS(=O)(=O)c1cccc(-c2nc(Nc3cnn(CCO)c3)c3[nH]ncc3n2)c1" : ____
10 to 100 nM

Reported IC50, compound "FCCn1cc(Nc2nc(-c3ccco3)nc3cn[nH]c23)cn1" : ____
10 to 100 nM

###

The next entries give measured pIC50 for SYK kinase (Homo sapiens).
pIC50: −log10 of the molar value.

Observe how each entry below is paired with its result.
>  <molecule>
O=S1(=O)CCc2ccc(Nc3nc(-c4cccs4)nc4cn[nH]c34)cc21 [Example 17]

>  <pIC50>
6.00 to 7.00

$$$$
>  <molecule>
CC(=O)N1CCC(n2cc(Nc3nc(-c4cccc(S(N)(=O)=O)c4)nc4cn[nH]c34)cn2)CC1 [Example 427]

>  <pIC50>
6.00 to 7.00

$$$$
>  <molecule>
CC(C)(C)N1CCC(n2cc(Nc3nc(-c4nc5c(s4)CCCC5)nc4cn[nH]c34)cn2)CC1 [Example 495]

>  <pIC50>
7.00 to 8.00

$$$$
>  <molecule>
CN1C(=O)COc2ccc(Nc3nc(C4CC4)nc4cn[nH]c34)cc21 [Example 497]

>  <pIC50>
6.00 to 7.00

$$$$
>  <molecule>
COc1cc(Nc2nc(-c3c(F)cccc3F)nc3cn[nH]c23)ccc1N1CCOCC1 [Example 12]

>  <pIC50>
> 8.00

$$$$

Field: pIC50 (SYK kinase (Homo sapiens)). Entry: Fc1cc(Nc2nc(-c3ccc4cn[nH]c4c3)nc3cn[nH]c23)ccc1N1CCOCC1 [Example 46]
7.00 to 8.00

###

The next entries give measured pIC50 for SYK kinase (Homo sapiens, UniProt P43405).
pIC50: −log10 of the molar value.

Observe how each entry below is paired with its result.
>  <molecular.string>
CC(C)Cn1cc(Nc2nc(-c3cocn3)nc3cn[nH]c23)cn1

>  <pIC50>
7.00 to 8.00

$$$$
>  <molecular.string>
O=C(c1ccc(Nc2nc(-c3ccoc3)nc3cn[nH]c23)cc1F)N1CCOCC1

>  <pIC50>
6.00 to 7.00

$$$$
>  <molecular.string>
CC(C)Cn1cc(Nc2nc(-c3ccco3)nc3cn[nH]c23)cn1

>  <pIC50>
7.00 to 8.00

$$$$
>  <molecular.string>
O=C1OCCN1c1ccc(Nc2nc(-c3ccoc3)nc3cn[nH]c23)cc1

>  <pIC50>
6.00 to 7.00

$$$$
>  <molecular.string>
OCCn1cc(Nc2nc(-c3ccc4cn[nH]c4c3)nc3cn[nH]c23)cn1

>  <pIC50>
7.00 to 8.00

$$$$

Now turn to the next compound.
Field: pIC50 (SYK kinase (Homo sapiens, UniProt P43405)). Entry: "Fc1ccccc1-c1nc(Nc2ccc(N3CCOCC3)c(F)c2)c2[nH]ncc2n1"
6.00 to 7.00

###

The next entries give measured IC50 for SYK kinase (Homo sapiens).

Observe how each entry below is paired with its result.
>  <compound>
c1cc(-c2nc(Nc3ccc(N4CCOCC4)cc3)c3[nH]ncc3n2)co1

>  <IC50>
10 to 100 nM

$$$$
>  <compound>
CC(=O)N1CCC(n2cc(Nc3nc(-c4ccc5cn[nH]c5c4)nc4cn[nH]c34)cn2)CC1

>  <IC50>
10 to 100 nM

$$$$
>  <compound>
COCCCn1cc(Nc2nc(-c3nc4ccccc4s3)nc3cn[nH]c23)cn1

>  <IC50>
< 10 nM

$$$$

Field: IC50 (SYK kinase (Homo sapiens)). Entry: "COCC(COC)n1cc(Nc2nc(-c3ccco3)nc3cn[nH]c23)cn1"
100 to 1000 nM

Field: IC50 (SYK kinase (Homo sapiens)). Entry: "O=C1CCCc2ccc(Nc3nc(-c4c(F)cccc4F)nc4cn[nH]c34)cc2N1"
100 to 1000 nM

Field: IC50 (SYK kinase (Homo sapiens)). Entry: "CC(C)c1nc(Nc2ccc(N3CCOCC3)cc2)c2[nH]ncc2n1"
100 to 1000 nM

Field: IC50 (SYK kinase (Homo sapiens)). Entry: "CC(C)Cn1cc(Nc2nc(-c3ccoc3)nc3cn[nH]c23)cn1"
10 to 100 nM

Field: IC50 (SYK kinase (Homo sapiens)). Entry: CC(C)(O)Cn1cc(Nc2nc(-c3ccco3)nc3cn[nH]c23)cn1 [Example 369]
100 to 1000 nM

Field: IC50 (SYK kinase (Homo sapiens)). Entry: "O=C1CCCc2ccc(Nc3nc(-c4ccoc4)nc4cn[nH]c34)cc2N1"
10 to 100 nM

Field: IC50 (SYK kinase (Homo sapiens)). Entry: "CC(=O)N1CCN(c2ccc(Nc3nc(C4CCC4)nc4cn[nH]c34)cc2)CC1"
< 10 nM

Field: IC50 (SYK kinase (Homo sapiens)). Entry: "CC(C)(C)n1cc(Nc2nc(-c3ccoc3)nc3cn[nH]c23)cn1"
10 to 100 nM

###

The next entries give measured IC50 for UniProt:P43405.

Observe how each entry below is paired with its result.
>  <molecular.string>
N#CC1(n2cc(Nc3nc(-c4ccco4)nc4cn[nH]c34)cn2)CCCCC1

>  <observed.measurement>
100 to 1000 nM

$$$$
>  <molecular.string>
COc1cccc(-c2nc(Nc3cnn(C4CCN(C(C)(C)C)CC4)c3)c3[nH]ncc3n2)c1

>  <observed.measurement>
10 to 100 nM

$$$$
>  <molecular.string>
CN(C)C(=O)Cn1cc(Nc2nc(-c3ccco3)nc3cn[nH]c23)cn1

>  <observed.measurement>
100 to 1000 nM

$$$$

Now turn to the next compound.
Field: IC50 (UniProt:P43405). Entry: "CC(C)(C)n1cc(Nc2nc(-c3cocn3)nc3cn[nH]c23)cn1"
10 to 100 nM
